# Test context: 4 h, 10 μM
Prodrug (%) remaining, Rat Plasma listing for selected molecules.

Known Prodrug (%) remaining, Rat Plasma results, listed for orientation:
CCC(CC)C(=O)OC1=C[C@@H]2N(C)CC[C@]2(c2ccc(OC)c(OC)c2)CC1 [Compound 426]; 0.1%
COc1ccc([C@@]23CCC(OC(=O)c4c(C)cccc4C)=C[C@@H]2N(C)CC3)cc1OC [Compound 372]; >99%
COc1ccc([C@@]23CCC(OC(=O)c4ccc(C(C)C)cc4)=C[C@@H]2N(C)CC3)cc1OC [Compound 371]; 0.0%

So, COc1ccc([C@@]23CCC(OC(=O)c4c(C)cc(C)cc4C)=C[C@@H]2N(C)CC3)cc1OC [Compound 356] ? Its Prodrug (%) remaining, Rat Plasma was 95.8%

So, COc1ccc([C@@]23CCC(OC(=O)CCN)=C[C@@H]2N(C)CC3)cc1OC [Compound 397] ? Its Prodrug (%) remaining, Rat Plasma was 0.1%

So, CCC(C)C(=O)OC1=C[C@@H]2N(C)CC[C@]2(c2ccc(OC)c(OC)c2)CC1 (stereo partly shown) [Compound 425] ? Its Prodrug (%) remaining, Rat Plasma was 0.0%

So, CCC(C)(C)C(=O)OC1=C[C@@H]2N(C)CC[C@]2(c2ccc(OC)c(OC)c2)CC1 [Compound 428] ? Its Prodrug (%) remaining, Rat Plasma was 3.9%

So, CCCC(CCC)C(=O)OC1=C[C@@H]2N(C)CC[C@]2(c2ccc(OC)c(OC)c2)CC1 [Compound 427] ? Its Prodrug (%) remaining, Rat Plasma was 2.3%

So, CCCC(C)(C)C(=O)OC1=C[C@@H]2N(C)CC[C@]2(c2ccc(OC)c(OC)c2)CC1 [Compound 429] ? Its Prodrug (%) remaining, Rat Plasma was 26.2%

So, CCCCC(CC)C(=O)OC1=C[C@@H]2N(C)CC[C@]2(c2ccc(OC)c(OC)c2)CC1 (stereo partly shown) [Compound 401] ? Its Prodrug (%) remaining, Rat Plasma was 3.3%

So, CCCCCCCC(=O)OC1=C[C@@H]2N(C)CC[C@]2(c2ccc(OC)c(OC)c2)CC1 [Compound 395] ? Its Prodrug (%) remaining, Rat Plasma was 0.1%

So, COCCOCCC(=O)OC1=C[C@@H]2N(C)CC[C@]2(c2ccc(OC)c(OC)c2)CC1 [Compound 405] ? Its Prodrug (%) remaining, Rat Plasma was 0.0%

So, COc1ccc([C@@]23CCC(OC(=O)c4cccc(C)c4C)=C[C@@H]2N(C)CC3)cc1OC [Compound 373] ? Its Prodrug (%) remaining, Rat Plasma was 1.3%

====

# Format: physicochemical
# Test context: SGF with pepsin, pH 1.5, 37° C., 0.5 mM; time 1 min
Metric: Condition 1 Conversion (%)
# number only, unit % dropped from output

Known Condition 1 Conversion (%) results, listed for orientation:
COc1ccc([C@@]23CCC(=NO)C[C@@H]2N(C)CC3)cc1OC (mixture of isomers); 0
COc1ccc([C@@]23CCC(=NNc4ccc(C(=O)O)cc4)C[C@@H]2N(C)CC3)cc1OC; 0
COc1ccc([C@]23CCN(C)[C@H]2CC2(CC3)O[C@@H]([C@@H](O)Cn3c4nc(=O)[nH]c(=O)c-4nc4cc(C)c(C)cc43)[C@@H](CO)O2)cc1OC (stereo partly drawn); 0
C=C(C)C(=O)OC1=C[C@@H]2N(C)CC[C@]2(c2ccc(OC)c(OC)c2)CC1; 0

So, "COc1ccc([C@@]23CCC(=NOCCC45CC6CC(CC(C6)C4)C5)C[C@@H]2N(C)CC3)cc1OC" ? Its Condition 1 Conversion (%) was 0

So, COc1ccc(C23CCC(=NNC(=O)Nc4ccccc4)C[C@@H]2N(C)CC3)cc1OC (stereo in doubt) ? Its Condition 1 Conversion (%) was 0.86

So, "COc1ccc([C@@]23CC/C(=N\NC(=O)c4cccnc4)C[C@@H]2N(C)CC3)cc1OC" ? Its Condition 1 Conversion (%) was 100

So, "COc1ccc([C@@]23CCC(=NNC(=O)c4ccc(Cl)cc4)C[C@@H]2N(C)CC3)cc1OC" ? Its Condition 1 Conversion (%) was 84

So, "COc1ccc([C@@]23CCC(=NNC(=O)C(=O)O)C[C@@H]2N(C)CC3)cc1OC" ? Its Condition 1 Conversion (%) was 100
